So I've got a bunch of binders here, and I need their peptide exchange yield values.
Target: T1, HLA-A*03:01 (human)
T1 construct: MHC class I monomer first loaded with a UV-sensitive peptide that is cleaved by UV irradiation and exchanged for the test peptide; captured on streptavidin plates; also called peptide-receptive MHC molecules
Test: UV-ligand exchange, anti-b2m ELISA; peptide exchange yield grade (>10% +, >20% ++, >50% +++, >75% ++++)

// field: peptide exchange yield; key: RLPLRVVKH ; value = > 75%

// field: peptide exchange yield; key: KLLEDMVEK ; value = 20 to 50%

// field: peptide exchange yield; key: KIICGVHYLY ; value = 10 to 20%

// field: peptide exchange yield; key: VSYNRLIK ; value = 50 to 75%

// field: peptide exchange yield; key: SLYDSEPRKK ; value = > 75%

// field: peptide exchange yield; key: RALGVPFVPR ; value = > 75%

// field: peptide exchange yield; key: AVIGALLAVGATK ; value = 50 to 75%

// field: peptide exchange yield; key: RVKEIVINK ; value = 50 to 75%
